Biological target: sGC α1/β1 heterodimer (Homo sapiens, UniProt Q02108+Q02153)
Sequence (Q02108 whole entry): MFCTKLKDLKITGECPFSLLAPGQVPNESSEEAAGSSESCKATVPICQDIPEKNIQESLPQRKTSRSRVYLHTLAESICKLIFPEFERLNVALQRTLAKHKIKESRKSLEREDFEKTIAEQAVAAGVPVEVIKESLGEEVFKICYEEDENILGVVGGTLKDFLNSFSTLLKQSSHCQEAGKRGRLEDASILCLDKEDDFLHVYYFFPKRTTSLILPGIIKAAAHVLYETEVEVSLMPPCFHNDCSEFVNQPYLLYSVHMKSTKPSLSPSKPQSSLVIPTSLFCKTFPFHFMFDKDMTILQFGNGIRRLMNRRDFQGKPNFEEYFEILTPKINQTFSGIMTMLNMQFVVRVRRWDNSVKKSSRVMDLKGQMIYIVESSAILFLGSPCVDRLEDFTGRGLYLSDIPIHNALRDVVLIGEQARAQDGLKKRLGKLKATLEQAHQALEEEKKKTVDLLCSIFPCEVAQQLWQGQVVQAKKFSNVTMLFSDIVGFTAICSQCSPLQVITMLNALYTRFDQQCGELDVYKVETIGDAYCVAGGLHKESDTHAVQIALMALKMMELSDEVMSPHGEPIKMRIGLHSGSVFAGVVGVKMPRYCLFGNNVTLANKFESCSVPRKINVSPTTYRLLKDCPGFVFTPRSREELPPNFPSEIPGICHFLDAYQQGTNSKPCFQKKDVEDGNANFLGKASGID
Sequence (Q02153 whole entry): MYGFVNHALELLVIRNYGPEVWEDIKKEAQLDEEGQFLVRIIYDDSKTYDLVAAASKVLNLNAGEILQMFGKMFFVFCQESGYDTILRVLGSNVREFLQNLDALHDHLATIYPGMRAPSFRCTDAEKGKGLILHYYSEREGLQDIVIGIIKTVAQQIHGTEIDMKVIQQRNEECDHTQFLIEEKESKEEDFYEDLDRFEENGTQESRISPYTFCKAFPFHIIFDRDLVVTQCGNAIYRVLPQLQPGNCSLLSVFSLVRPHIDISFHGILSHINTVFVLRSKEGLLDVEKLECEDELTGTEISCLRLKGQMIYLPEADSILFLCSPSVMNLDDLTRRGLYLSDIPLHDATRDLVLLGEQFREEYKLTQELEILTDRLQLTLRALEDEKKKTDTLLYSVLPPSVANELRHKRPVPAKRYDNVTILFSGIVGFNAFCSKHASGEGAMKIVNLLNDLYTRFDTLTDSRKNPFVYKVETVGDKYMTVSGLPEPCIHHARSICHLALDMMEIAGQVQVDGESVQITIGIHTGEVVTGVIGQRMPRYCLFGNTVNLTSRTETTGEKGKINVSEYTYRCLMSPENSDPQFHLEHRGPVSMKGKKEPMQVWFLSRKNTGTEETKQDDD
Test: Cell-based sGC Functional Assay (CASA Assay): cGMP generation in CHO-K1/sGC cells, HTRF readout
Conditions: without ODQ incubation, read-out: IP (inflection point)
pEC50: −log10 of the molar value.
experimental_endpoint: pEC50

Consider the following illustrative entries.
| mol | observed_value |
| --- | --- |
| Cc1c(-c2cnc(-c3nc(Cc4c(F)ccc(F)c4F)n4ncccc34)nc2N)c(C(F)(F)F)nn1C | 6.30 |
| Cn1cc(-c2c(N)nc(-n3nc(Cc4c(F)ccc(F)c4F)c4cc(Cl)ccc43)nc2N)cn1 | 7.47 |
| Nc1nc(-c2nc(Cc3c(F)ccc(F)c3F)n3cc(F)ccc23)ncc1-c1ccnc2ccc(F)cc12 | 6.77 |
| Nc1nc(-n2nc(Cc3c(F)ccc(F)c3F)c3cc(Cl)ccc32)nc(N)c1NC(=O)C1CC1 | 6.28 |
| Nc1nc(-c2nc(Cc3c(F)ccc(F)c3F)n3ncccc23)ncc1-c1cccc2ncccc12 | 6.53 |
| Nc1nc(-n2nc(CCC3CCCC3)c3ccccc32)nc(N)c1-c1cccnc1 | 6.27 |

(I) Nc1nc(-c2nc(Cc3c(F)ccc(F)c3F)n3cc(F)ccc23)ncc1-c1cccnc1
(II) Cc1cc(-c2cnc(-c3nc(Cc4c(F)ccc(F)c4F)n4ncccc34)nc2N)ccn1
Exercise: Among I and II , whose measured pEC50 is the smaller figure? Write down the label of the entry you select.
Key: I
(I: 6.40, II: 6.75)

====

Target: sGC α1/β1 heterodimer (Homo sapiens, UniProt Q02108+Q02153)
Construct: expressed in transfected cells; host or cells: CHO-K1 (clone #7, CHO-K1/sGC)
Assay: Cell-based sGC Functional Assay (CASA Assay): cGMP generation in CHO-K1/sGC cells, HTRF readout
Settings: without ODQ incubation
experimental_endpoint: Maximum fold induction over DMSO control (fold)

Consider the following illustrative entries.
| mol | unit_spec | Maximum fold induction over DMSO control |
| --- | --- | --- |
| Nc1nc(-n2nc(Cc3c(F)ccc(F)c3F)c3cc(Cl)ccc32)nc(N)c1NC(=O)C1CC1 | fold | 74 |
| Nc1nc(-n2nc(CCC3CCCC3)c3ccccc32)nc(N)c1-c1cccnc1 | fold | 244 |
| Nc1nc(-c2nc(Cc3c(F)ccc(F)c3F)n3ncccc23)ncc1-c1cccc2ncccc12 | fold | 129 |
| Cn1cc(-c2c(N)nc(-n3nc(Cc4c(F)ccc(F)c4F)c4cc(Cl)ccc43)nc2N)cn1 | fold | 127 |
| Nc1nc(-c2nc(Cc3c(F)ccc(F)c3F)n3cc(F)ccc23)ncc1-c1ccnc2ccc(F)cc12 | fold | 234 |

(I) Nc1nc(-c2nc(Cc3c(F)ccc(F)c3F)n3cc(F)ccc23)ncc1-c1cccnc1
(II) Cc1cc(-c2cnc(-c3nc(Cc4c(F)ccc(F)c4F)n4ncccc34)nc2N)ccn1
Exercise: Which value of Maximum fold induction over DMSO control is numerically greater: that of I or that of II ? Write down the label of the entry you select.
Key: I
(I: 322 fold, II: 55 fold)
